A collection of binders and their measured pIC50
assayed-target: T1, β-catenin (UniProt P35222 1-781, limits assumed)
T1 construct: also called beta-catenin
T1 sequence (looked up): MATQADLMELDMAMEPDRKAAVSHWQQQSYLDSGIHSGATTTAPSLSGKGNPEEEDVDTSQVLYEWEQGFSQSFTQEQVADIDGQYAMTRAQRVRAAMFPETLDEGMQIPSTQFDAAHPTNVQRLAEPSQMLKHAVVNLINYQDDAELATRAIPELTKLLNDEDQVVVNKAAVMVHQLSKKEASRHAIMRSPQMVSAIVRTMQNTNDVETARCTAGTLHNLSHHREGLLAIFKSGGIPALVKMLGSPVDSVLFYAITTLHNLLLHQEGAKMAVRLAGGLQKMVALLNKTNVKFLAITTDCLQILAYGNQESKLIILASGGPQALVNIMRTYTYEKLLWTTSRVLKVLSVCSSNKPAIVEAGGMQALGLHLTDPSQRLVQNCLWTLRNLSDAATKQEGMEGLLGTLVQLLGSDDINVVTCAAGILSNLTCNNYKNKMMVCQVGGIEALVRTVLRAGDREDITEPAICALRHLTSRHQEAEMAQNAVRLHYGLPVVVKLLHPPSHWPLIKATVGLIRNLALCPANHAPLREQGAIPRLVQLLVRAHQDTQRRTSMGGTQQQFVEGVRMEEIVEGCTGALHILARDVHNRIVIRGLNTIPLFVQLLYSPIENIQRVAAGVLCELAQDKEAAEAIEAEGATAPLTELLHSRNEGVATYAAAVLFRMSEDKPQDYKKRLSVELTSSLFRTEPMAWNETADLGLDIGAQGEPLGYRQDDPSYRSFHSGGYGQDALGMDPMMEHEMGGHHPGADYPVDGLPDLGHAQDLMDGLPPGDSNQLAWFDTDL
measurement-notes: ALPHA Screen (BCL9/β-catenin);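 also: bead proximity readout with the polypeptide linked to donor beads and β-catenin fixed on acceptor beads, their binding bringing the beads close enough to emit signal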
pIC50: −log10 of the molar value. Bridges are numbered along the chain shown (N, C = ends). Primed or numbered codes have the meaning given here. [ ]: non-standard residue; d: D form. S5′ = (S)-2-(4'-pentenyl)alanine, olefinic stapling residue closed by ring-closing metathesis; NMeQ′ = N-methylglutamine (N-alpha-methyl, stereo named both D and L in the filing); Phe(4-F) = N[C@@H](Cc1ccc(F)cc1)C(=O)O; 2Nal = N[C@@H](Cc1ccc2ccccc2c1)C(=O)O; NMeR = CN[C@@H](CCCNC(=N)N)C(=O)O; NMeQ = CN[C@@H](CCC(N)=O)C(=O)O; Cba = N[C@@H](CC1CCC1)C(=O)O; S5 = C=CCCC[C@](C)(N)C(=O)O; Nle = CCCC[C@H](N)C(=O)O

| binder | pIC50 |
| --- | --- |
| Ac-HRE[S5′]SLQ[S5′]LR[Nle]IQR[Nle]L[2Nal]-OH (staple 4-8) [SEQ ID NO: 80] | 5.27 |
| Ac-HR[NMeQ′]RSL[NMeQ′]TLR[S5]IQR[S5][Phe(4-F)][2Nal]-NH2 (staple 11-15; not fully specified; printed as HR(N-methylQ)RSL(N-methylQ)TLRXIQRX(4-F-Ph)(2-Nal), X/X stapled, (S) α-methyl, N-terminal Ac, C-terminal NH2) [SEQ ID NO: 202] | 6.53 |
| Ac-H[NMeR]QRSLQTLR[S5]IQR[S5][Cba][2Nal]-NH2 (staple 11-15; not fully specified; printed as H(R-Me)QRSLQTLRXIQRX(CBA)(2-Nal), X/X stapled, (S) α-methyl, N-terminal Ac, C-terminal NH2) [SEQ ID NO: 158] | 6.42 |
| {5‑phenylvaleric acid}-L[NMeQ]TLR[S5]IQR[S5][Cba][2Nal]-NH2 (staple 6-10; not fully specified) [SEQ ID NO: 142] | 5.22 |
